Origin of measurements: ChEMBL document CHEMBL4043130

- Test Details: Inhibition of HDAC in human HeLa nuclear extract preincubated for 5 mins followed by Boc-Lys (acetyl)-AMC addition measured after 10 mins by fluorescence assay
pIC50: −log10 of the molar value.
Property Measured: pIC50

Worked examples follow.
Smiles Entry	Experimental Result
CC[C@H](C)[C@H](NC(=O)OC(C)(C)C)C(=O)N1Cc2cc(OCC(=O)NO)ccc2C[C@H]1C(=O)Nc1ccc(N(C)C)cc1	7.26
CC[C@H](C)[C@H](NC(=O)CC(C)(C)C)C(=O)N1Cc2cc(OCC(=O)NO)ccc2C[C@H]1C(=O)Nc1ccc(N(C)C)cc1	7.41

(I) CN(C)c1ccc(NC(=O)[C@@H]2Cc3ccc(OCC(=O)NO)cc3CN2C(=O)CNC(=O)CC(C)(C)C)cc1
(II) CC[C@H](C)[C@H](NC(=O)CC(C)(C)C)C(=O)N1Cc2cc(OCC(=O)NO)ccc2C[C@H]1C(=O)Nc1ccc(OC)cc1
# min-compare on pIC50 between I and II Indicate which entry you chose by stating its label.
I
